Consider the following compounds and their measured RP-LC retention time readings.
Assay: gradient 5% acetonitrile 3 min, to 50% in 2 min, to 85% in 15 min, held 3 min, 100 µL/min
Conditions: column: Zorbax Extend-C18 2.1 x 50 mm; eluents: water / acetonitrile, 0.1% formic acid
Readout type: RP-LC retention time (s)

INSERT INTO results (compound, readout_type, readout_number) VALUES
  ('CCCn1cc(C(=O)Nc2ccc(C)cc2)c(S(=O)(=O)N2CCSCC2)n1', 'RP-LC retention time', 1090),
  ('Cc1c(C#N)c2ccccc2n1CC(=O)NC(C)c1ccc2c(c1)OCCCO2 (centres undefined)', 'RP-LC retention time', 892),
  ('Cc1ccccc1NC(=O)Nc1ccc2nnc(C)n2c1', 'RP-LC retention time', 662),
  ('COc1ccc(S(=O)(=O)N2CCc3c(c(-c4nnc(-c5ccc(F)cc5)o4)nn3C)C2)cc1', 'RP-LC retention time', 945),
  ('O=C(Cc1ccsc1)N1CCC(n2c(-c3ccco3)nc3cccnc32)C1 (centres undefined)', 'RP-LC retention time', 689),
  ('Cc1ccc2[nH]cc(CCN3CC(C(=O)Nc4ccccc4C)CC3=O)c2c1 (centres undefined)', 'RP-LC retention time', 798),
  ('CCCNC(=O)N1CCCN(C2=NS(=O)(=O)C(c3ccc(C)cc3)=C2C)CC1', 'RP-LC retention time', 776),
  ('O=C(C1CCCN(c2nn3c(=O)c4c(nc3s2)CCCC4)C1)N1CCC2(CC1)OCCO2 (centres undefined)', 'RP-LC retention time', 674),
  ('CCCN1C(=O)c2cc(S(=O)(=O)Nc3ccc(Cl)cc3)ccc2Oc2cccnc21', 'RP-LC retention time', 1110);

* * *

Assay: gradient 5% acetonitrile 3 min, to 50% in 2 min, to 85% in 15 min, held 3 min, 100 µL/min
Conditions: column: Zorbax Extend-C18 2.1 x 50 mm; eluents: water / acetonitrile, 0.1% formic acid
Readout type: RP-LC retention time

INSERT INTO results (compound, result) VALUES
  ('COc1cc(OC)c(C(=O)CCCCN2CCC3(CC2)NC(=O)NC3=O)cc1NS(=O)(=O)c1ccc(C(F)(F)F)cc1', '750 s'),
  ('CN1C(=O)NC(c2ccc(Cl)cc2)C2=C1CN(c1ccc(C(=O)O)cc1)C2=O (stereo not given)', '691 s'),
  ('Nc1ccc(Br)cc1Br', '1000 s'),
  ('COc1ccc(C(C)NC(=O)c2c(C)sc3ccn(C)c(=O)c23)cc1 (stereo not given)', '735 s'),
  ('CCc1nc2cc(N3CCCC(C(=O)O)C3)cnc2nc1CC (stereo not given)', '693 s'),
  ('CN1C(=O)c2cccnc2Sc2cc(NC(=O)c3c(F)cccc3Cl)ccc21', '783 s'),
  ('O=C(NCCn1nc(-c2cccs2)ccc1=O)c1ccc(=O)n(Cc2ccccc2)n1', '678 s'),
  ('CCN1CCN(CCCNC(=O)c2nnc(-c3ccc(S(=O)(=O)N4CCCC4)cc3)o2)CC1', '581 s'),
  ('COc1ccc(-c2cc3nc(C)cc(N4CCN(c5nc(C)cc(C)n5)CC4)n3n2)cc1OC', '735 s'),
  ('Cc1ccc(CNC(=O)c2nnc(-c3ccc(S(=O)(=O)N4CCOCC4)cc3)o2)cc1', '863 s'),
  ('Cc1ccc(-n2c(N3CCCC(C(=O)NCC(C)c4ccccc4)C3)nc3ccsc3c2=O)cc1 (stereo not given)', '961 s'),
  ('CCn1ccc(C(=O)N2[C@H]3CC[C@@H]2c2cnc(C)nc2C3)n1', '610 s'),
  ('CCN(CC)c1ncc2c(n1)CCC(C(=O)NCc1ccc(F)cc1Cl)C2 (stereo not given)', '731 s'),
  ('CC(=O)N1CCC(n2c(C)nc(C(=O)Nc3ccc4c(c3)OCO4)c2C)CC1', '603 s'),
  ('Cc1cnc(C)n1CC1CCN(C(=O)C2CCC2)C1 (stereo not given)', '565 s'),
  ('COc1ccc(SCC(=O)Nc2nnc(-c3ccno3)o2)cc1', '672 s'),
  ('CCOCCCNC(=O)c1c2c(cn(-c3ccc(F)cc3)c1=O)C(=O)CC(C)(C)C2', '859 s'),
  ('CCN(CCN(C)C)c1nc(-c2ccc(OC)cc2)nc2ccccc12', '562 s'),
  ('CCc1nnc2ccc(S(=O)(=O)Nc3ccc(F)cc3)cn12', '707 s'),
  ('O=C(NCc1ccccc1)c1nc2ccccn2c1-c1ccsc1', '842 s');
